Each recorded value in this set is attributed to paper PMC12390684.

System: HIV-1Laï
experiment.description: microbe, parasite or virus in culture
Assay type: cell-based
quantity.kind: effect on HIV replication, in words

1) CC(=O)OC(C)C1C2=C(C(=O)CC1(C)O)C(=O)c1c(ccc(-c3ccc4c(c3O)C(=O)C3=C(C4=O)C(C(C)OC(C)=O)C(C)(O)CC3=O)c1O)C2=O (stereo not shown): anti-

----------
target.desc: IN-GCN2 interaction (6xHis-IN / GST-GCN2) (UniProt P04585+Q9P2K8)
Sequence (Q9P2K8 192-1024, other chains not shown): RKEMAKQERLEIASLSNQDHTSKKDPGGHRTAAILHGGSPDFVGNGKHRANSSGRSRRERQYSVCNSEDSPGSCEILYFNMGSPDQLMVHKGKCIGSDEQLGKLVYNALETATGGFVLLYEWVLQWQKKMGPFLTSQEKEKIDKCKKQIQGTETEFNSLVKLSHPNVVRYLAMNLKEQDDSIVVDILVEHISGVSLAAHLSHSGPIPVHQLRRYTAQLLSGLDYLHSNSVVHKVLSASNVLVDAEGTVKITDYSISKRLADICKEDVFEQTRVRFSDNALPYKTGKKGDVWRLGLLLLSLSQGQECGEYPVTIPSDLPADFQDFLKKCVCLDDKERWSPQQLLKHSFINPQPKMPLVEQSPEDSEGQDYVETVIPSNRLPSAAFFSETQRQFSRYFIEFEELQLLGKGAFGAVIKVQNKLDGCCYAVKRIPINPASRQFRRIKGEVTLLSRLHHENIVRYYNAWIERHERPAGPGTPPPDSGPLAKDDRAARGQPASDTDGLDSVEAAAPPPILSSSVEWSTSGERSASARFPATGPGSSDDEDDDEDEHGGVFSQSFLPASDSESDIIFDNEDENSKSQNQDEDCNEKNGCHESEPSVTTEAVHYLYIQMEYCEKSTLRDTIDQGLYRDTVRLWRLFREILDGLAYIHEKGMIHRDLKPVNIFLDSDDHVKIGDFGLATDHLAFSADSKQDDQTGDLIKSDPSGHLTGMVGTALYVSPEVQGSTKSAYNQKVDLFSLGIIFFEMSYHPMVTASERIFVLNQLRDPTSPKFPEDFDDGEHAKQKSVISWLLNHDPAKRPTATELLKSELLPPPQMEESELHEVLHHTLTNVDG
experiment.description: biochemical
Assay type: binding, HIV-1 IN; human GCN2
experimental.setup: IC50, inhibition of IN-GCN2 interaction, plated compounds of the screen, dose-response (Figure 1B), n = 9
quantity.kind: IC50 (nM)
Return type: number; implicit unit nM.

Form field IC50 for item CCCCCC1=C/C(=C/c2[nH]c(-c3ccc[nH]3)cc2OC)N=C1C [NSC47147, prodigiosin] on IN-GCN2 interaction (6xHis-IN / GST-GCN2) (UniProt P04585+Q9P2K8): 880
